# experiment: In vitro plasma protein binding
# Assay type: in vitro ADME
# condition notes: range given for mouse and dog together
measured property: fraction unbound

*Q* Requested field: fraction unbound. Item: CCOC(=O)C1=C(NN2CCN(CC(F)(F)F)CC2)O/C(=C\c2c[nH]c3ncccc23)C1=O [SRA141]
*A* 0.23 to 0.42

====

Listing of entries alongside the reported pIC50.
# System: AM7577
# experiment: AML PDX ex vivo 3D culture, 5 days
# Assay type: cell-based
Scale: negative log10 of molar concentration, which is what pIC50 denotes.

>>> reported_value("CCOC(=O)C1=C(NN2CCN(CC(F)(F)F)CC2)O/C(=C\\c2c[nH]c3ncccc23)C1=O")
6.82

*Q* Requested field: pIC50. Item: N.N.[Cl][Pt][Cl] [Cisplatin]
*A* 5.38

Values compiled from patent US12533353B2.
